- Tested on: Candida albicans
- assay.explanation: Antifungal activity against Candida albicans ATCC 32032 assessed as growth inhibition after 24 to 48 hrs by agar plate bioassay
- Format: functional
measurement.type: MIC (µM)
// return numeric value only (unit: µM, not printed)

Ask: Can you share its MIC? I mean this compound: COc1ccc(-c2sc(/N=C/c3ccc(N(C)CCC#N)cc3)c(C#N)c2C)cc1OC
Reply: 12

Ask: Same lookup for COc1ccc(-c2sc(/N=C/c3ccc(-c4ccccc4)cc3)c(C#N)c2C)cc1OC , please.
Reply: 8

Ask: Consider next the compound Cc1c(-c2ccccc2)sc(/N=C/c2cc(Cl)cc(Cl)c2O)c1C#N in the same way.
Reply: 40

---

- measured.target: Cytochrome P450 3A4 (Homo sapiens, UniProt P08684)
- Sequence (P08684 whole entry): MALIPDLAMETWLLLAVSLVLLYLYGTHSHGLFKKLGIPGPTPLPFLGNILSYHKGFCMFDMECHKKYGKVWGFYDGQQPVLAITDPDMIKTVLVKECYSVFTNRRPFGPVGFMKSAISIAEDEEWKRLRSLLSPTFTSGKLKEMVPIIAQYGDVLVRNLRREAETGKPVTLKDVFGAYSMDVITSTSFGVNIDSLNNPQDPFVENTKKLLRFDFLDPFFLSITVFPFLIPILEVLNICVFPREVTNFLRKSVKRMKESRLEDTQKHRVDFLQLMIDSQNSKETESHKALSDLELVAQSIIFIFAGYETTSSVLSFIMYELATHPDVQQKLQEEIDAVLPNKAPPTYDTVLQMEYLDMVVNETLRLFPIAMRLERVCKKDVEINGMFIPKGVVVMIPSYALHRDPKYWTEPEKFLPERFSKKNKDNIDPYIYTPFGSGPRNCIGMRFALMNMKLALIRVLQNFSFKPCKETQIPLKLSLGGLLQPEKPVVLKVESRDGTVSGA
- assay.explanation: Inhibition of human recombinant CYP3A4
measurement.type: IC50 (µM)
Give the value, in units of µM, as a plain number.

Ask: Field: IC50 (Cytochrome P450 3A4 (Homo sapiens, UniProt P08684)). Entry: COc1ccc(-c2sc(/N=C/c3ccc(N(C)CCC#N)cc3)c(C#N)c2C)cc1OC
Reply: 33.2

---

- measured.target: UniProt P33261
- Sequence (P33261 whole entry): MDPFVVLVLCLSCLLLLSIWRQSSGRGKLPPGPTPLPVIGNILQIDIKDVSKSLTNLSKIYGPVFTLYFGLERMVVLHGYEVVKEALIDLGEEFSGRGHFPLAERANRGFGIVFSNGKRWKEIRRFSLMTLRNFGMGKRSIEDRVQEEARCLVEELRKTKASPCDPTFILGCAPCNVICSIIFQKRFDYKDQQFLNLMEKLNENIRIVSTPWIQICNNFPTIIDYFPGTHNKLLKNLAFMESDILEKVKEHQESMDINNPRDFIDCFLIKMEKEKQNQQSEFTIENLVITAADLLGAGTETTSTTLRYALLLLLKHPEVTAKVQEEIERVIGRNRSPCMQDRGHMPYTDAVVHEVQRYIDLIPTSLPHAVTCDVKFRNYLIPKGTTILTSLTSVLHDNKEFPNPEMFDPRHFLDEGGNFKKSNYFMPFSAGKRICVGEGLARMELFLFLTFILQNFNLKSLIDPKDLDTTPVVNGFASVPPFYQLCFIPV
- assay.explanation: Inhibition of human recombinant CYP2C19
measurement.type: pIC50
Note on units: pIC50 is unitless, being -log10 of a concentration expressed in mol/L.

Ask: Request: pIC50, test system UniProt P33261, entry COc1ccc(-c2sc(/N=C/c3ccc(-c4ccccc4)cc3)c(C#N)c2C)cc1OC
Reply: 5.64

Ask: Now consider COc1ccc(-c2sc(/N=C/c3ccc(N(C)CCC#N)cc3)c(C#N)c2C)cc1OC .
Reply: 5.96

---

For each of the compounds below, state its pIC50.
- measured.target: Cytochrome P450 2C9 (Homo sapiens)
- Sequence (P11712 whole entry): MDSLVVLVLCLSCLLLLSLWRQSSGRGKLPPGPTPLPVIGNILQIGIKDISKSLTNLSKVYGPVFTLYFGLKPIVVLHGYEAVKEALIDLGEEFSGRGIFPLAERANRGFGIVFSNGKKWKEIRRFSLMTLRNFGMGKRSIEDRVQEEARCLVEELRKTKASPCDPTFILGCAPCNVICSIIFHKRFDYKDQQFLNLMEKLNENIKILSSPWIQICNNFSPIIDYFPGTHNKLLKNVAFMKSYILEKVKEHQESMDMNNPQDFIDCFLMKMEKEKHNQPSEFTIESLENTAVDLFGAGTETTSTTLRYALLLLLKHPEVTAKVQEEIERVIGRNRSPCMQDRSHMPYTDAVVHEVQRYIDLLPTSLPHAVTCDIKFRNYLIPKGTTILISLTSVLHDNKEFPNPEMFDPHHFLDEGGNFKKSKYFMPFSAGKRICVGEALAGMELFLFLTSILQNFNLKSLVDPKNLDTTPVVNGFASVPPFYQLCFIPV
- assay.explanation: Inhibition of human recombinant CYP2C9
To interpret pIC50, take it as minus log10 of a concentration measured in moles per litre.

Ask: Hello, I am looking for reported pIC50 with Cytochrome P450 2C9 (Homo sapiens) for COc1ccc(-c2sc(/N=C/c3ccc(N(C)CCC#N)cc3)c(C#N)c2C)cc1OC . Could you help?
Reply: 5.92

Ask: Next compound: COc1ccc(-c2sc(/N=C/c3ccc(-c4ccccc4)cc3)c(C#N)c2C)cc1OC
Reply: 5.85

---

Please respond with reported MIC for every item in the list.
- Test system: Candida albicans
- assay.explanation: Antifungal activity against Candida albicans assessed as morphogenetic transformation after 3 hrs by phase-contrast microscopy
- Type: functional
Answer in µM, number only, no unit symbol.

Ask: Give its MIC value. Item: Clc1ccc(COC(Cn2ccnc2)c2ccc(Cl)cc2Cl)c(Cl)c1 (stereo not given) [MICONAZOLE]
Reply: 76.9

Ask: Let us now turn to CCC(C)(C)c1ccc(CC(C)CN2C[C@@H](C)O[C@@H](C)C2)cc1 (stereo not given in full) [AMOROLFINE]
Reply: 202

Ask: Cool, now CN(C/C=C/C#CC(C)(C)C)Cc1cccc2ccccc12 [TERBINAFINE]
Reply: 439

Ask: Next record, please: OC(Cn1cncn1)(Cn1cncn1)c1ccc(F)cc1F [FLUCONAZOLE]
Reply: 104

Data provenance is ChEMBL document CHEMBL1926617.
